test summary: Fluorescence properties of compounds 3, 4, 5 and FP1 (Table 1)
Format: physicochemical
Description: Such red-shifted fluorophores are desirable because of low autofluorescence, minimal phototoxicity, and negligible interference from biomolecules when employed in live cell imaging. […] Of note, the aldehyde is strategically positioned at C3 such that after the reaction cascade, the N1 lone pair electrons can delocalize into the π-system rather than quench fluorescence via an acceptor-excited PeT (a-PeT) pathway. […]
Reported ε is given for each of the following compounds.
Please state the figure in M⁻¹ cm⁻¹; there is no need to write the unit.

Example entries and their recorded answers appear below.
{"columns": ["compound", "ε, M⁻¹ cm⁻¹"],
 "data": [
  ["Cc1cc2c(cc1C1=C3C=CC(=O)C=C3[Si](C)(C)c3c1cc1c4c3CCCN4CCC1)c(C=O)cn2C [Compound 4]", 106000],
  ["C=CCC(N)c1cn(C)c2cc(C)c(C3=C4C=CC(=O)C=C4[Si](C)(C)c4c3cc3c5c4CCCN5CCC3)cc12 (stereo not shown) [Compound 5]", 100000],
  ["C=CCC(NCc1ccc([N+](=O)[O-])cc1)c1cn(C)c2cc(C)c(C3=C4C=CC(=O)C=C4[Si](C)(C)c4c3cc3c5c4CCCN5CCC3)cc12 (stereo not shown) [FP1]", 29000]
]}

For the next question, use this compound.
[Q] Please give the measured ε for this compound: Cc1cc2c(ccn2C)cc1C1=C2C=CC(=O)C=C2[Si](C)(C)c2c1cc1c3c2CCCN3CCC1 [Compound 3]
[A] 86000
